Biological target: Histone-lysine N-methyltransferase EHMT2 (Homo sapiens)
Experiment: qHTS Assay for Inhibitors of Histone Lysine Methyltransferase G9a; also: nearly all actives have a fitted effect of over 75% in size
Conditions: G9a H3K9 monomethylation, AlphaScreen, 2 h; series mostly up to 59 µM
In all, about 350,000 compounds went through this assay and about 31,000 (8.9%) were called active. Roughly 15% stayed inconclusive and do not appear here. Calls follow the shape of the dose curve; as a rule, active = well fitted inhibition curve with a large enough effect; inconclusive = small, poorly fitted or top-dose-only effect; inactive = no such curve, though single readings can be large or run the other way. The sample holds actives, similar compounds and a random draw of the others, so the mix is not that of the screen.
Parameter call: string, one of y = active, n = inactive

Example entries begin here.
compound | measurement target | class label
COc1ccccc1NC(=O)/C=C/C(=O)O | Histone-lysine N-methyltransferase EHMT2 (Homo sapiens) | n
O=C(CSc1nnc(Nc2ccccc2)s1)Nc1cccnc1Cl | Histone-lysine N-methyltransferase EHMT2 (Homo sapiens) | n
CCNC(=S)Nc1cccc(Cl)c1C | Histone-lysine N-methyltransferase EHMT2 (Homo sapiens) | n

Task item: Status in this test for Cc1ccccc1OCc1nc2c3cnn(-c4ccccc4F)c3ncn2n1 ?
Reply: n

Task item: Status in this test for CCOc1ccc(CCNC(=O)CN2C(=O)NC3(CCc4ccccc43)C2=O)cc1OCC (configuration not stated) ?
Reply: n

Task item: Status in this test for CCN(CC)S(=O)(=O)c1ccc(CNC(=O)CN2C(=O)NC3(CCc4ccccc43)C2=O)cc1 (configuration not stated) ?
Reply: y

Task item: Status in this test for Cc1nnc(SCC(=O)NCc2ccccc2Cl)c2nn(-c3ccccc3)c(C)c12 ?
Reply: n

Task item: Status in this test for Cc1c(NC(=O)Nc2ccccc2)cccc1[N+](=O)[O-] ?
Reply: n

Task item: Status in this test for Cc1cccc(Cn2c(CN3CCC(C(=O)NCc4ccccc4Cl)CC3)cc3ccccc32)c1 ?
Reply: n

Task item: Status in this test for COc1ccc(-n2ccn(CC(=O)Nc3ccc(C)c(C)c3)c(=O)c2=O)cc1OC ?
Reply: n

Task item: Status in this test for Nn1c(SCC(=O)NC(=O)NC2CCCC2)nnc1-c1ccccc1F ?
Reply: n

Task item: Status in this test for O=C(CC1CCCCC1)NCc1ccccc1 ?
Reply: n

Task item: Status in this test for Cc1nn(CC(=O)NCCc2ccccc2)c(=O)c2c1sc1ccccc12 ?
Reply: n

Task item: Status in this test for Cc1cccc(-n2ncc(C(=O)N3CCc4ccccc4C3)c2C2CCN(C(=O)OC(C)(C)C)CC2)c1 ?
Reply: n

Task item: Status in this test for Cc1c(NC(=O)/C=C/C(=O)O)cccc1[N+](=O)[O-] ?
Reply: y

Task item: Status in this test for O=C(CSc1nnc(Nc2ccccc2F)s1)NC1CCCC1 ?
Reply: y

Task item: Status in this test for CCc1ccccc1OCCSc1nc(-c2cccs2)nc2cc(=O)[nH]n12 ?
Reply: n

Task item: Status in this test for Cc1nnc(N2CCCC(C(=O)NCCN(C)C)C2)c2nn(-c3ccccc3)c(C)c12 (configuration not stated) ?
Reply: n

Task item: Status in this test for COc1ccccc1C(=O)NCCn1cc(SCc2ccccc2Cl)c2ccccc21 ?
Reply: n

Task item: Status in this test for COc1ccc(-c2c(C)c3ccc(O)c(CN4CCN(C)CC4)c3oc2=O)cc1OC ?
Reply: n

Task item: Status in this test for C=CCn1c2ccccc2c2nnc(SC(CC)C(=O)Nc3nc(C)c(C(=O)OCC)s3)nc21 (configuration not stated) ?
Reply: n

Task item: Status in this test for CC(=O)Nc1ccc(OCC(=O)NCc2ccc(C)cc2)cc1 ?
Reply: n

====

Biological target: Histone-lysine N-methyltransferase EHMT2 (Homo sapiens)
Assay: qHTS Assay for Inhibitors of Histone Lysine Methyltransferase G9a; also: nearly all actives have a fitted effect of over 75% in size
Settings: G9a H3K9 monomethylation, AlphaScreen, 2 h; series mostly up to 59 µM
Screen size: about 350,000 compounds; about 31,000 (8.9%) were called active. Inconclusive results (about 15%) are left out. Calls come from the whole dose curve; as a rule, active = well fitted inhibition curve with a large enough effect; inconclusive = small, poorly fitted or top-dose-only effect; inactive = no such curve, though single readings can be large or run the other way. The full list was thinned out, with actives kept by preference.
Parameter call: string, one of t for active, f for inactive

Example entries begin here.
compound | measurement target | class label
Cc1ccccc1CN1C(=O)c2ccccc2Sc2ccc(C(=O)NCCCN3CCOCC3)cc21 | Histone-lysine N-methyltransferase EHMT2 (Homo sapiens) | f
O=C1CC(c2ccccc2)CC(O)=C1C=NCCN1CCOCC1 (stereo unspecified) | Histone-lysine N-methyltransferase EHMT2 (Homo sapiens) | t
O=C(NCCN1CCOCC1)/C(=C/c1ccc(F)cc1)NC(=O)c1ccccc1 | Histone-lysine N-methyltransferase EHMT2 (Homo sapiens) | f
COc1ccccc1OCCNCC(O)COc1cccc2[nH]c3ccccc3c12 (stereo unspecified) | Histone-lysine N-methyltransferase EHMT2 (Homo sapiens) | f
O=C(NCCN1CCOCC1)c1ccc(/C=C2\Sc3ccccc3N(Cc3ccc(F)cc3)C2=O)cc1 | Histone-lysine N-methyltransferase EHMT2 (Homo sapiens) | t
COc1cc(CN2CC(C)CC(C)C2)cc([N+](=O)[O-])c1O (stereo unspecified) | Histone-lysine N-methyltransferase EHMT2 (Homo sapiens) | f

Task item: Status in this test for COc1cc(CN2CCN(Cc3ccc(C)cc3)CC2)c([N+](=O)[O-])cc1OC ?
Reply: t

Task item: Status in this test for O=C1CCCC(O)=C1C=NCCc1ccccc1 ?
Reply: f

Task item: Status in this test for CCNC(=S)N1CCN(CCN=CC2=C(O)CC(C)(C)CC2=O)CC1 ?
Reply: f

Task item: Status in this test for O=C1CC(c2cccc(Cl)c2)CC(O)=C1C=Nc1ccccc1 (stereo unspecified) ?
Reply: f

Task item: Status in this test for CC(C)C(=O)N1CCN(CCN=CC2=C(O)CC(c3ccco3)CC2=O)CC1 (stereo unspecified) ?
Reply: t

====

Target: Histone-lysine N-methyltransferase EHMT2 (Homo sapiens) (UniProt Q96KQ7)
Sequence (Q96KQ7 913-1193 limits assumed): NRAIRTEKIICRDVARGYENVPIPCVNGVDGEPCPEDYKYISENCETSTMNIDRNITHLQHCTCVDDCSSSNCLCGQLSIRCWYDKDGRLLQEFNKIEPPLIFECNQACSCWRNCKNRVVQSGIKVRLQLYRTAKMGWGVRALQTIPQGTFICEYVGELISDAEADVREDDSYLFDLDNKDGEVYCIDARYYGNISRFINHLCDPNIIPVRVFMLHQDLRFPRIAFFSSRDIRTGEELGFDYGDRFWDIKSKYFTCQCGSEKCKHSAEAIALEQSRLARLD
Experiment: qHTS Assay for Inhibitors of Histone Lysine Methyltransferase G9a; also: nearly all actives have a fitted effect of over 75% in size; as to activity, negative = inhibition: % is scaled to controls: 0 for no effect and ±100 for the full control effect
Details: G9a H3K9 monomethylation, AlphaScreen, 2 h; series mostly up to 59 µM
Hit rate of the full screen: of about 350,000 compounds, about 31,000 (8.9%) were called active. Another 15% or so got no clear call; they are omitted. Many of the other results were omitted from the sample, so actives are more common in it than they were.
Kindly state activity, negative = inhibition for each of the entries shown.

Hey, can you go through the list below and give me activity, negative = inhibition for every item?
1. CCOC(=O)c1nn(-c2cccc(C)c2)cc1C(=O)c1ccccc1
2. Cc1ccccc1-c1nnc(SCC(=O)NCc2ccc3c(c2)OCO3)n1C

Reply:
-45.6% [at 2.33 µM] (inactive)
-10.1% [at 12.7 µM] (inactive)

Hey, can you go through the list below and give me activity, negative = inhibition for every item?
1. CCC1Nc2ncnc(N3CCN(c4ccccc4)CC3)c2N(Cc2ccc(Cl)cc2)C1=O (stereo not given)
2. CCN(CC)S(=O)(=O)c1ccc2nc(COC(=O)c3n[nH]c4ccccc34)[nH]c2c1
3. COc1cc(OC)cc(-c2c(-c3cccs3)c3cc(-c4ccc(OC)nc4)ccc3n2C)c1

Reply:
["3.93% [at 2.33 µM] (inactive)", "12.7% [at 12.7 µM] (inactive)", "0.323% [at 0.501 µM] (inactive)"]

====

Target: Histone-lysine N-methyltransferase EHMT2 (Homo sapiens) (UniProt Q96KQ7)
Experiment: qHTS Assay for Inhibitors of Histone Lysine Methyltransferase G9a; also: nearly all actives have a fitted effect of over 75% in size; as to activity, negative = inhibition: % is scaled to controls: 0 for no effect and ±100 for the full control effect
Settings: G9a H3K9 monomethylation, AlphaScreen, 2 h; series mostly up to 59 µM
Method: Methylated lysines, on the N-terminal tails of histone proteins serve as epigenetic markers to recruit factors that can then modify local chromatin structure to lead to functional consequences. […] Methylation of biotinylated-histone peptide is measured through specific antibody-based detection, in conjunction with streptavidin-coated donor and anti-IgG antibody-coated acceptor beads. […]
In all, about 350,000 compounds went through this assay and about 31,000 (8.9%) were called active. About 15% were inconclusive and are not listed. This excerpt belongs to a sample that is enriched for actives.
Kindly state activity, negative = inhibition for each of the entries shown.

The cases that follow already have their activity, negative = inhibition on record.
molecule | measurement target | result
CCCc1nnc(NC(=O)c2cccs2)s1 | Histone-lysine N-methyltransferase EHMT2 (Homo sapiens) (UniProt Q96KQ7) | -0.387% [at 12.7 µM] (inactive)
COc1ccccc1OCCNC(=O)C(CCSC)NC(=O)COc1ccccc1 (stereo not drawn) | Histone-lysine N-methyltransferase EHMT2 (Homo sapiens) (UniProt Q96KQ7) | 9.08% [at 12.7 µM] (inactive)

Hey, can you go through the list below and give me activity, negative = inhibition for every item?
1. COc1ccc(S(=O)(=O)N2CCCC2CNC(=O)C(=O)NC2CC2)cc1 (stereo not drawn)
2. COc1cccc(N2CCN(CC(=O)Nc3ccnn3C3CCCC3)CC2)c1
3. COc1ccc(Cl)cc1NC(=O)CN(C)C(=O)c1cc(-c2cccs2)nn1-c1ccccc1
4. CCN1C(=NCCc2cccnc2)N[C@@H](c2ccccc2)[C@H](C(=O)OC)[C@H]1C
5. COc1ccc(-c2cc3ncccc3cn2)cc1
6. COc1cc(OC)c(C(=S)N2CCCC2)cc1OC
7. O=C(NC1CCCCCC1)C1CCN(C(=O)c2ccc(Cl)cc2)CC1

Reply:
1: 4.18% [at 0.501 µM] (inactive); 2: 3.38% [at 12.7 µM] (inactive); 3: 8.22% [at 0.501 µM] (inactive); 4: -5.2% [at 12.7 µM] (inactive); 5: -3.56% [at 0.501 µM] (inactive); 6: 10.9% [at 0.501 µM] (inactive); 7: 6.11% [at 12.7 µM] (inactive)

Hey, can you go through the list below and give me activity, negative = inhibition for every item?
1. Cc1noc(C)c1COc1ccc(C(=O)NCCOc2ccccc2)cc1
2. c1ccc(CN2CCC(N=C3NN=C(c4ccc5c(c4)OCCO5)CS3)CC2)cc1

Reply:
["19.8% [at 12.7 µM] (inactive)", "-3.44% [at 12.7 µM] (inactive)"]

Hey, can you go through the list below and give me activity, negative = inhibition for every item?
1. CC(Sc1nnc(C2CC2)n1C1CC1)C(=O)Nc1ccc(C(N)=O)cc1 (stereo not drawn)
2. CCN(CC(=O)Nc1ccc(NC(C)=O)cc1)C(=O)C1CC(=O)N(Cc2ccc(C)cc2)C1 (stereo not drawn)
3. O=C(O[C@H]1[C@H](Cc2ccccc2)NS(=O)(=O)[C@H]2C[C@@H]3C=C[C@]12O3)c1ccc([N+](=O)[O-])cc1
4. O=C(C1=C(O)C(=O)N(Cc2ccccc2)C1c1ccco1)c1ccco1 (stereo not drawn)
5. O=c1onc(-c2cccs2)n1Cc1ccccc1
6. Cc1ccc(N2C(=O)C3C4C=CC(CC4)C3C2=O)cc1Br (stereo not drawn)
7. CC1(C)NC(=O)N(CC(=O)N2CCN(S(=O)(=O)c3ccccc3F)CC2)C1=O
8. Cc1ccc(C(=O)Oc2ccc(C(=S)N3CCOCC3)cc2)cc1

Reply:
-5.65% [at 2.33 µM] (inactive)
-0.244% [at 0.501 µM] (inactive)
-6.93% [at 2.33 µM] (inactive)
0.744% [at 12.7 µM] (inactive)
1.14% [at 12.7 µM] (inactive)
-6.84% [at 0.501 µM] (inactive)
22.5% [at 12.7 µM] (inactive)
10.7% [at 2.33 µM] (inactive)
